The reported numbers originate from the supplement of paper PMC10037445.

Test system: RAW-Dual
protocol.details: NF-kB SEAP reporter activity, fold change vs agonist alone; higher = enhanced NF-kB activity
experimental.conditions: library stock concentration (final ~1000-fold dilution): 10 mM; cytotoxicity flag (confluency mask): not cytotoxic; agonist: MPLA (TLR4) […]
Whole data set: some 2,900 compounds, median “NF-kB SEAP reporter activity, fold change vs agonist alone” near 0.99, cut for the highest 2% near 2.6. This is one part of a sample in which the highest values are shown more often than they occur.
measured.attribute: NF-kB SEAP reporter activity
Output spec: single numeric token, no unit.

### Prompt Would you kindly share the measured NF-kB SEAP reporter activity for `O=C(Cc1ccccc1)Nc1nnc(NC2CCN(c3nnc(NC(=O)Cc4ccccc4)s3)CC2)s1` ?
### Response 1.26

### Prompt Same lookup for `COc1cc(/C=C/C(=O)O)ccc1O` , please.
### Response 1.09

### Prompt Same lookup for `O=c1cc(N2CCOCC2)oc2c(-c3ccc4c(c3)OCCO4)csc12` , please.
### Response 2.36

### Prompt Same lookup for CCCC1CC(C(=O)NC(C(C)Cl)C2OC(SC)C(O)C(O)C2O)N(C)C1 (configuration not stated) , please.
### Response 1.07

### Prompt Same lookup for `O=C(Nc1ccc(Cl)cc1)c1cc2ccccc2cc1OP(=O)(O)O` , please.
### Response 1.04

### Prompt Same lookup for `CC1(N)CCN(c2cnc(-c3cccc(Cl)c3Cl)c(N)n2)CC1.Cl` , please.
### Response 1.18

### Prompt Same lookup for `Nc1ncnc2[nH]nc(Nc3ccc(F)cc3)c12` , please.
### Response 2.6

### Prompt Same lookup for `Oc1c(F)cc(-c2cnccc2-c2ccc(N3CCOCC3)cc2)cc1F` , please.
### Response 0.911

### Prompt Same lookup for CCCCCCCCCCCC(CC1OC(=O)C1CCCCCC)OC(=O)C(CC(C)C)NC=O (configuration not stated) , please.
### Response 0.902

### Prompt Same lookup for CC1OC(OC2C(O)C(OCCc3ccc(O)c(O)c3)OC(CO)C2OC(=O)/C=C/c2ccc(O)c(O)c2)C(O)C(O)C1O (configuration not stated) , please.
### Response 1.02

### Prompt Same lookup for `Cc1cc(Cl)ccc1OCCCC(=O)NO` , please.
### Response 1.31

### Prompt Same lookup for CCn1c(-c2nonc2N)nc2c(C#CC(C)(C)O)ncc(OCC3CCCNC3)c21 (configuration not stated) , please.
### Response 1.95

### Prompt Same lookup for Cc1cnc(NC(=O)Nc2cc(Br)c(C)cc2OCC2CNCCO2)cn1 (configuration not stated) , please.
### Response 0.946

### Prompt Same lookup for CS(=O)(=O)O.O=C(OC1CC2CC3CC(C1)N2CC3=O)c1c[nH]c2ccccc12 (configuration not stated) , please.
### Response 0.75

### Prompt Same lookup for `COc1ccc(S(=O)(=O)NCc2ccc(C(=O)NCCc3ccc(Cl)cn3)cc2)cc1` , please.
### Response 1.19

### Prompt Same lookup for `CCN(CC)Cc1cc(Nc2ccnc3cc(Cl)ccc23)ccc1O.Cl.Cl.O.O` , please.
### Response 0.82

### Prompt Same lookup for `Cc1ccc(/C=N/NC(=O)c2ccccc2Oc2ccccc2)o1` , please.
### Response 1.09

### Prompt Same lookup for CC(C)CC(NC(=O)C1OC1C(=O)O)C(=O)NCCCCNC(=N)N (configuration not stated) , please.
### Response 1.11

### Prompt Same lookup for O=c1cc(-c2ccc(O)cc2)oc2c(C3OC(CO)C(O)C(O)C3O)c(O)cc(O)c12 (configuration not stated) , please.
### Response 0.994

### Prompt Same lookup for CCN(CC)CC#CCOC(=O)C(O)(c1ccccc1)C1CCCCC1.Cl (configuration not stated) , please.
### Response 1.46

### Prompt Same lookup for CC12CC(O)C3CC1(O[C@@H]1O[C@H](CO)[C@@H](O)[C@H](O)[C@H]1O)C3(COC(=O)c1ccccc1)C(=O)O2 (some centres not stated) , please.
### Response 1.03

### Prompt Same lookup for `Fc1ccc(CNc2ncnc3ccc(F)cc23)cc1` , please.
### Response 1.47

### Prompt Same lookup for Cc1ccc(S(=O)(=O)O)cc1.NC(=O)c1cccc2cn(-c3ccc(C4CCCNC4)cc3)nc12 (configuration not stated) , please.
### Response 1.04

### Prompt Same lookup for `COc1ccc(/C=C\c2cc(OC)c(OC)c(OC)c2)cc1O` , please.
### Response 2.07

### Prompt Same lookup for CC1(C)SC2CC(=O)N2C1C(=O)OCOC(=O)C1N2C(=O)C(NC(=O)C(N)c3ccccc3)C2S(=O)(=O)C1(C)C.Cc1ccc(S(=O)(=O)O)cc1 (configuration not stated) , please.
### Response 1.02

### Prompt Same lookup for `Cl.O=S(=O)(c1cccc2c(I)cccc12)N1CCCNCC1` , please.
### Response 1.12

### Prompt Same lookup for CC(C)OC(=O)CCC/C=C\CC1C(O)CC(O)C1CCC(O)CCc1ccccc1 (configuration not stated) , please.
### Response 1.43

### Prompt Same lookup for `C=C(CC(=O)OCCCCCCCC)C(=O)O` , please.
### Response 0.955

### Prompt Same lookup for CC(C(=O)Nc1ccc(Cl)cc1)C1CCC(c2ccnc3ccc(F)cc23)CC1 (configuration not stated) , please.
### Response 1.55

### Prompt Same lookup for `COc1ccc(/C=C/C(=O)O)cc1OC` , please.
### Response 1.05

### Prompt Same lookup for CC(C)CC(NC(=O)C(NC(=O)c1cccc(-c2ccccc2)n1)C(C)O)B(O)O (configuration not stated) , please.
### Response 0.997

### Prompt Same lookup for Nc1ccn(C2CSC(CO)O2)c(=O)n1 (configuration not stated) , please.
### Response 1.04

### Prompt Same lookup for `O=S(=O)(N=Cc1c(O)ccc2ccccc12)c1cccs1` , please.
### Response 1.03

### Prompt Same lookup for `COCCOc1cc(F)c2c(Nc3ccc(NC(=O)Cn4cc(C(C)C)nn4)cc3)ncnc2c1` , please.
### Response 1.01

### Prompt Same lookup for CC(=O)OC1(C(C)=O)CCC2C3C=C(C)C4=CC(=O)CCC4(C)C3CCC21C (configuration not stated) , please.
### Response 1.14

### Prompt Same lookup for C=C1C(=O)OC2/C=C(\C)CC/C=C(\C)CCC12 (configuration not stated) , please.
### Response 0.198

### Prompt Same lookup for CC(=O)NC(CC(C)C)C(=O)NC(CC(C)C)C(=O)NC(C=O)CCCNC(=N)N (configuration not stated) , please.
### Response 1.09

### Prompt Same lookup for `O=C(Nc1ncc([N+](=O)[O-])s1)c1ccccc1O` , please.
### Response 0.945

### Prompt Same lookup for CC(Nc1cc(F)cc(F)c1)c1cc(C(=O)N(C)C)cc2c(=O)cc(N3CCOCC3)oc12 (configuration not stated) , please.
### Response 1.21

### Prompt Same lookup for CC12CCC(=O)C=C1C=CC1C2CCC2(C)C1CCC21CCC(=O)O1 (configuration not stated) , please.
### Response 1.05

### Prompt Same lookup for `CC(C)n1nc(-c2cc3cc(O)ccc3[nH]2)c2c(N)ncnc21` , please.
### Response 0.941

### Prompt Same lookup for N#Cc1cc(N2CCC(C(=O)N3N=CCC3c3cc(F)cc(F)c3)CC2)ncn1 (configuration not stated) , please.
### Response 1.26

====

Tested on: RAW-Dual
protocol.details: NF-kB SEAP reporter activity, fold change vs agonist alone; cytotoxicity flag (confluency mask): not cytotoxic; higher = enhanced NF-kB activity
experimental.conditions: agonist: Pam2CSK4 (TLR2/6) 0.1 ug/mL
In all, about 2,900 compounds were measured (“NF-kB SEAP reporter activity, fold change vs agonist alone”: median about 0.99, highest 2% from about 2.6 on). Many of the other results were omitted from the sample, so the highest values are more common in it than they were.
Hi there, I'd appreciate the recorded NF-kB SEAP reporter activity for every entry that follows.
Output spec: single numeric token, no unit.

### Prompt Would you kindly share the measured NF-kB SEAP reporter activity for C[C@H]1[C@@H](O)O[C@@H]2OC3(C)CC[C@H]4[C@H](C)CC[C@@H]1[C@@]24OO3 (library stock concentration (final ~1000-fold dilution): 10 mM) ?
### Response 1.1

### Prompt Same lookup for CCC(C)CC(C)CCCCCCCCC(=O)NC1CC(O)C(NCCN)NC(=O)C2C(O)CCN2C(=O)C(C(O)CCN)NC(=O)C(C(O)C(O)c2ccc(O)cc2)NC(=O)C2CC(O)CN2C(=O)C(C(C)O)NC1=O (stereo not given) (library stock concentration (final ~1000-fold dilution): 10 mM water) , please.
### Response 1.09

### Prompt Same lookup for Cc1c[nH]c(-c2cnc(NCCNc3ccc(C#N)cn3)nc2-c2ccc(Cl)cc2Cl)n1 (library stock concentration (final ~1000-fold dilution): 10 mM) , please.
### Response 2.12

### Prompt Same lookup for CC(=O)C1CCC2C3CC=C4CC(O)CCC4(C)C3CCC12C (stereo not given) (library stock concentration (final ~1000-fold dilution): 10 mM) , please.
### Response 0.904

### Prompt Same lookup for CC(C)C(C(=O)O)N1C(=O)/C(=C/c2ccc(Br)cc2)SC1=S (stereo not given) (library stock concentration (final ~1000-fold dilution): 10 mM) , please.
### Response 0.947

### Prompt Same lookup for C/C(=N\NC(=O)c1cccc(S(=O)(=O)N2CCOCC2)c1)c1cc(Cl)ccc1O (library stock concentration (final ~1000-fold dilution): 10 mM) , please.
### Response 1.52

### Prompt Same lookup for Cl.Cl.NC1CCC(NC2CC2c2ccccc2)CC1 (stereo not given) (library stock concentration (final ~1000-fold dilution): 10 mM) , please.
### Response 0.869

### Prompt Same lookup for CCCCCOc1ccc(-c2cc(-c3ccc(C(=O)NC4CC(O)C(O)NC(=O)C5C(O)C(C)CN5C(=O)C(C(O)CC(N)=O)NC(=O)C(C(O)C(O)c5ccc(O)c(OS(=O)(=O)O)c5)NC(=O)C5CC(O)CN5C(=O)C(C(C)O)NC4=O)cc3)no2)cc1 (stereo not given) (library stock concentration (final ~1000-fold dilution): 10 mM water) , please.
### Response 0.968

### Prompt Same lookup for CCCC(NC1CCc2cc(F)cc(F)c2C1)C(=O)Nc1cn(C(C)(C)CNCC(C)(C)C)cn1 (stereo not given) (library stock concentration (final ~1000-fold dilution): 10 mM) , please.
### Response 0.723

### Prompt Same lookup for CO[C@H](c1c(NC(=O)Nc2cnc(-n3nccn3)c(Cl)c2)cnc2cc(Cl)nn12)[C@@H](C)OC (library stock concentration (final ~1000-fold dilution): 10 mM) , please.
### Response 0.76

### Prompt Same lookup for Cc1ccc(Sc2cncc3sc(C(N)=O)cc23)cc1 (library stock concentration (final ~1000-fold dilution): 10 mM) , please.
### Response 1.62

### Prompt Same lookup for C=C1c2cccc(O)c2C(=O)C2=C(O)C3(O)C(=O)C(C(N)=O)=C(O)C(N(C)C)C3C(O)C12.Cl (stereo not given) (library stock concentration (final ~1000-fold dilution): 10 mM water) , please.
### Response 1.26

### Prompt Same lookup for Cc1c[nH]c(-c2cnc(NCCNc3ccc(C#N)cn3)nc2-c2ccc(Cl)cc2Cl)n1.Cl (library stock concentration (final ~1000-fold dilution): 10 mM) , please.
### Response 1.84

### Prompt Same lookup for O=C(Nc1ccc(O)cc1)c1ccccc1O (library stock concentration (final ~1000-fold dilution): 10 mM) , please.
### Response 0.921

### Prompt Same lookup for O=C(Nc1cccc(Br)c1)c1cccc(S(=O)(=O)N2CCCCCC2)c1 (library stock concentration (final ~1000-fold dilution): 10 mM) , please.
### Response 1.02

### Prompt Same lookup for CCn1cc(-c2ccnc3[nH]c(-c4cccc(CN(C)C)c4)cc23)c(-c2ccc(NC(=O)N(C)C)cc2)n1 (library stock concentration (final ~1000-fold dilution): 10 mM) , please.
### Response 1.83

### Prompt Same lookup for Cc1[nH]c2ccccc2c1C1=C(NCCc2ccc(F)cc2)C(=O)N(C)C1=O (library stock concentration (final ~1000-fold dilution): 10 mM) , please.
### Response 0.531

### Prompt Same lookup for CC(C)CC(=O)NC(C(=O)NC(C(=O)NC(CC(C)C)C(O)CC(=O)NC(C)C(=O)NC(CC(C)C)C(O)CC(=O)O)C(C)C)C(C)C (stereo not given) (library stock concentration (final ~1000-fold dilution): 10 mM) , please.
### Response 1

### Prompt Same lookup for O=C(NCC(O)CN1CCc2ccccc2C1)c1ccnc(NC2CCC2)c1 (stereo not given) (library stock concentration (final ~1000-fold dilution): 10 mM) , please.
### Response 1.03

### Prompt Same lookup for CNC(C)C(=O)NC(C(=O)N1CCCC1C(=O)Nc1snnc1-c1ccccc1)C1CCCCC1 (stereo not given) (library stock concentration (final ~1000-fold dilution): 10 mM) , please.
### Response 0.972
